From: patent US20100323990A1

- Test system: SHIP enzyme
- method.description: In vitro SHIP enzyme assay (Assay 1), phosphate release by Malachite Green; also: key: a ‘+’ indicates a positive result for desired activity; a ‘−’ indicates a negative result for desired activity
- Assay type: biochemical
- protocol.conditions: 10 ng enzyme/well, 100 μM inositol-1,3,4,5-tetrakisphosphate
recorded.metric: Assay 1: SHIP enzyme assay, desired activity

| molecule | result |
| --- | --- |
| Cc1cc(O)c(O)c2c1[C@@]1(C)CCC3C(C)(C)CCC[C@]3(C)[C@H]1C2 (stereo partly drawn) | + |
| COC(=O)c1cc(O)c(O)c2c1[C@@]1(C)CCC3C(C)(C)CCC[C@]3(C)[C@H]1C2 (stereo partly drawn) | + |
| Cc1cc(O)cc2c1[C@]1(C)CCC3C(C)(C)CCC[C@]3(C)[C@H]1C2 (stereo partly drawn) | + |
